Provide the recorded T/C for the entries that follow.
# Test system: P388 leukemia ip, CD2F1 mice, survival T/C
# runDescription: NCI In Vivo Anticancer Drug Screen. Data for tumor model P388 Leukemia (intraperitoneal) in CD2F1 (CDF1) mice
# experimentalContext: endpoint: median survival time; dose: 100.0 mg/kg/injection; schedule: Q01DX005 (ip); vehicle: Klucel (hydroxypropylcellulose) (HPC); higher = longer survival
Toxic doses and inconclusive results are not listed.

Record C(=NCCC[Si]12OCCN(CCO1)CCO2)c1ccco1 / P388 leukemia ip, CD2F1 mice, survival T/C, T/C recorded as 105 % of control

Record Cc1cc2nc(-c3cc4cc(Cl)cc(Cl)c4oc3=O)[nH]c2cc1C / P388 leukemia ip, CD2F1 mice, survival T/C, T/C recorded as 96 % of control

Record O=c1cc2[nH]c3ccccc3c(=O)n2[nH]1 / P388 leukemia ip, CD2F1 mice, survival T/C, T/C recorded as 97 % of control

Record C[C@]12C[C@@H](O)[C@H]3[C@@H](CCC4=C(O)C(=O)CC[C@@]43C)[C@@H]1CC[C@@H]2O / P388 leukemia ip, CD2F1 mice, survival T/C, T/C recorded as 90 % of control

Record Clc1ccc2nc(Cl)[nH]c2c1 / P388 leukemia ip, CD2F1 mice, survival T/C, T/C recorded as 100 % of control

Record CCNc1nc(NC(C)C)nc(-c2ccncc2)n1 / P388 leukemia ip, CD2F1 mice, survival T/C, T/C recorded as 108 % of control

Record CN(C)NCCCCCNN(C)C / P388 leukemia ip, CD2F1 mice, survival T/C, T/C recorded as 102 % of control

Record O=C(O)c1cc2ccccc2[nH]c1=O / P388 leukemia ip, CD2F1 mice, survival T/C, T/C recorded as 97 % of control

Record O=C1c2ccccc2C(=O)N1Cc1ccc(Cl)cc1[N+](=O)[O-] / P388 leukemia ip, CD2F1 mice, survival T/C, T/C recorded as 109 % of control

Record COc1cc(CNc2cccc(F)c2)cc(OC)c1OC / P388 leukemia ip, CD2F1 mice, survival T/C, T/C recorded as 110 % of control

Record CCC(C)C(NC(=O)OC(C)(C)C)C(=O)O (stereo not drawn) / P388 leukemia ip, CD2F1 mice, survival T/C, T/C recorded as 100 % of control

Record CC1=NCC(=O)O1 / P388 leukemia ip, CD2F1 mice, survival T/C, T/C recorded as 98 % of control

Record COc1cc2ccccc2c2cc([N+](=O)[O-])oc12 / P388 leukemia ip, CD2F1 mice, survival T/C, T/C recorded as 101 % of control

====

# Test system: P388 leukemia ip, CD2F1 mice, survival T/C
# runDescription: NCI In Vivo Anticancer Drug Screen. Data for tumor model P388 Leukemia (intraperitoneal) in CD2F1 (CDF1) mice
# experimentalContext: endpoint: median survival time; dose: 60.0 mg/kg/injection; schedule: Q01DX005 (ip); vehicle: saline with Tween-80; higher = longer survival
Toxic doses and inconclusive results are not listed.
reportedEndpoint: T/C

Record Nc1cccc2[nH]c(=O)c3ccccc3c12 / P388 leukemia ip, CD2F1 mice, survival T/C, T/C recorded as 93 % of control

Record Cc1ccc(C2COc3cc(O)c(O)cc3C2)cc1 (centres undefined) / P388 leukemia ip, CD2F1 mice, survival T/C, T/C recorded as 103 % of control

Record COc1nc2nc(SC(CC(=O)O)C(=O)c3ccc(Cl)cc3)[nH]c2c2ccccc12 (centres undefined) / P388 leukemia ip, CD2F1 mice, survival T/C, T/C recorded as 97 % of control

Record CC(C)(/C=C/c1ccccc1)N=Cc1ccccc1 / P388 leukemia ip, CD2F1 mice, survival T/C, T/C recorded as 100 % of control

Record O=S(=O)(O)SCCNCCCCC1CCCCC1 / P388 leukemia ip, CD2F1 mice, survival T/C, T/C recorded as 120 % of control

Record NC(=O)CCN1CCCN(CCC(N)=O)CCN(CCC(N)=O)CCCN(CCC(N)=O)CC1 / P388 leukemia ip, CD2F1 mice, survival T/C, T/C recorded as 102 % of control

Record O=C1C(c2cnc3c(n2)CCC=C3)=C(O)c2ccccc21 / P388 leukemia ip, CD2F1 mice, survival T/C, T/C recorded as 99 % of control

Record Clc1cccc(C(Nc2nncs2)Nc2nncs2)c1 / P388 leukemia ip, CD2F1 mice, survival T/C, T/C recorded as 100 % of control

Record O=C(OC1CCc2ccccc2C1)c1ccc(N=Nc2ccccc2)cc1 (centres undefined) / P388 leukemia ip, CD2F1 mice, survival T/C, T/C recorded as 91 % of control

Record CCOC(=O)C(C)NC(=O)OCc1ccccc1 (centres undefined) / P388 leukemia ip, CD2F1 mice, survival T/C, T/C recorded as 101 % of control

Record COc1ccc(C2C3=C(CCCC3=O)Oc3cc4c(cc32)OCO4)c(OC)c1 (centres undefined) / P388 leukemia ip, CD2F1 mice, survival T/C, T/C recorded as 99 % of control

Record C=C1C[C@H](O)[C@H]2C(C[Se]c3ccccc3)C(=O)O[C@@H]2[C@H]2[C@H](C)C(=O)C[C@@H]12 (some centres undefined) / P388 leukemia ip, CD2F1 mice, survival T/C, T/C recorded as 97 % of control

Record CC(C)(C)C1=NN=C(C(C)(C)C)CSC1 / P388 leukemia ip, CD2F1 mice, survival T/C, T/C recorded as 108 % of control

Record CS(=O)(=O)N1CCCN(S(C)(=O)=O)COC1 / P388 leukemia ip, CD2F1 mice, survival T/C, T/C recorded as 99 % of control

Record C=C1C(=O)C(CCCC)=C(CCC)C1O (centres undefined) / P388 leukemia ip, CD2F1 mice, survival T/C, T/C recorded as 100 % of control

Record O=C1c2ccccc2-c2c(Br)cc(Br)c(NC(=O)C(Cl)Cl)c21 / P388 leukemia ip, CD2F1 mice, survival T/C, T/C recorded as 96 % of control

Record CN(C)c1ccc(C(c2cc3c(cc2O)OCO3)N2CCCCC2)cc1 (centres undefined) / P388 leukemia ip, CD2F1 mice, survival T/C, T/C recorded as 113 % of control

Record COC(=O)c1c(O)c2c(c3c1OC(C)(C)CC3)OC(C)(C)CC2 / P388 leukemia ip, CD2F1 mice, survival T/C, T/C recorded as 90 % of control

Record CCNC1=C(C(=O)OCC)C(=O)CO1 / P388 leukemia ip, CD2F1 mice, survival T/C, T/C recorded as 100 % of control

Record COc1cc2c(cc1OC)C(C#N)(Cc1cccc3ccccc13)N(C(=O)c1ccccc1)C=C2 (centres undefined) / P388 leukemia ip, CD2F1 mice, survival T/C, T/C recorded as 99 % of control

Record COC(=O)c1nc(N)nc(C(=O)OC)c1C(=O)c1ccc(C)cc1 / P388 leukemia ip, CD2F1 mice, survival T/C, T/C recorded as 98 % of control

Record Cc1cc(C)nc(/C=C/c2ccc(/C=C/c3cc(C)cc(C)n3)cc2)c1 / P388 leukemia ip, CD2F1 mice, survival T/C, T/C recorded as 97 % of control

Record CCOC(C)OCCCI (centres undefined) / P388 leukemia ip, CD2F1 mice, survival T/C, T/C recorded as 105 % of control

Record CCn1c(=O)c(C#N)c2n(CC)c3cc(C)c(C)cc3n2c1=O / P388 leukemia ip, CD2F1 mice, survival T/C, T/C recorded as 90 % of control

====

# Test system: P388 leukemia ip, CD2F1 mice, survival T/C
# runDescription: NCI In Vivo Anticancer Drug Screen. Data for tumor model P388 Leukemia (intraperitoneal) in CD2F1 (CDF1) mice
# experimentalContext: endpoint: median survival time; dose: 25.0 mg/kg/injection; schedule: Q01DX005 (ip); vehicle: saline with Tween-80
Toxic doses and inconclusive results are not listed. Rule for the calls: active = survival T/C of 150% or more; inactive = T/C below 125% in these data.
Bench note: report the call from active, inactive

Req: Test call for this compound, please: CCN(CC)CCOCCc1ccccc1
Resp: inactive

Req: Test call for this compound, please: O=C(OCC1OC(n2ccc(=S)[nH]c2=O)C(OC(=O)c2ccccc2)C1OC(=O)c1ccccc1)c1ccccc1 (centres undefined)
Resp: inactive

Req: Test call for this compound, please: COc1ccc(S(=O)(=O)N/N=C/c2cc(=O)[nH]c(=O)[nH]2)cc1
Resp: inactive

Req: Test call for this compound, please: Cc1c(COC(=O)NC(C)C)c(COC(=O)NC(C)C)c2n1CCS2(=O)=O
Resp: inactive

Req: Test call for this compound, please: O=NN(CCF)C(=O)Oc1cc(Cl)c(Cl)cc1Cl
Resp: active

Req: Test call for this compound, please: O=C1CN(c2cccc(C(F)(F)F)c2)C(=O)CN1/N=C/c1ccc(O)c(O)c1
Resp: inactive

Req: Test call for this compound, please: O=C1C(Cl)=C(Sc2nc3ccccc3s2)C(=O)c2ccccc21
Resp: inactive

Req: Test call for this compound, please: COc1ccc(/C=N/NC(=O)c2ccc(OCc3nc4ccccc4[nH]3)cc2)cc1
Resp: inactive

Req: Test call for this compound, please: COCCN1CC(=O)N2Cc3ccccc3CN2C(=O)C1
Resp: inactive
